# assay_system: T1, GFP1 Right TALEN NT-betaN (synthetic construct)
# T1 chain: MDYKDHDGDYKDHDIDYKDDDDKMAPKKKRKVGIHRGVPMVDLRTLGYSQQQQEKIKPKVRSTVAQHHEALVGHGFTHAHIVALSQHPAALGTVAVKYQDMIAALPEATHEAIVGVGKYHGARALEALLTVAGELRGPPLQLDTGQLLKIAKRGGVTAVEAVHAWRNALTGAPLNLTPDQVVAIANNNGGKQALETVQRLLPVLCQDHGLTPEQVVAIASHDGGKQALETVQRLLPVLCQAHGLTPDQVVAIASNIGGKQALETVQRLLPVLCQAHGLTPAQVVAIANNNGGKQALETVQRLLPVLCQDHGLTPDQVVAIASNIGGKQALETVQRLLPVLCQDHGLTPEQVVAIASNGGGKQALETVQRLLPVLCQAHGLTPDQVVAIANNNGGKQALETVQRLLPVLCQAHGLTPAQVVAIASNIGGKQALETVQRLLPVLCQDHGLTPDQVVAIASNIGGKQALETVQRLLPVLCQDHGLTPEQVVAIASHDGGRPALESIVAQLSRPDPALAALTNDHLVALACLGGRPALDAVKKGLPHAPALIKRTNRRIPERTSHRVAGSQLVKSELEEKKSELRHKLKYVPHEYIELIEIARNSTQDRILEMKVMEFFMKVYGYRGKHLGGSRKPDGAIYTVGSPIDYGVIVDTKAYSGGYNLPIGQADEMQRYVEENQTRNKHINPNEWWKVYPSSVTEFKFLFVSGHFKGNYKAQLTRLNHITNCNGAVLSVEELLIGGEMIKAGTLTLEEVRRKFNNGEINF
# procedure_summary: cell_activity; SSA
# conditions: tags: 3xFlag, SV40 NLS, FokI fusion; chain copies: 2
readout_label: activity (RLU)
Just the number in RLU, nothing appended.

These solved cases illustrate the format of a correct answer.
GFP1 R SSA site 5'C (dsDNA) DNA 1: GGCGCAGATGAACGCAAGCTGACCCTGAAGTTCATCTGCGTT DNA 2: AACGCAGATGAACTTCAGGGTCAGCTTGCGTTCATCTGCGCC
1.12e+06
GFP1 R+R SSA site (dsDNA) DNA 1: GGTGCAGATGAACGCAAGCTGACCCTGAAGTTCATCTGCATT DNA 2: AATGCAGATGAACTTCAGGGTCAGCTTGCGTTCATCTGCACC
1.45e+06
GFP1 R SSA site 5'G (dsDNA) DNA 1: GGGGCAGATGAACGCAAGCTGACCCTGAAGTTCATCTGCCTT DNA 2: AAGGCAGATGAACTTCAGGGTCAGCTTGCGTTCATCTGCCCC
1.21e+06

Now examine the next entry.
Data request: Name the recorded activity for GFP1 R SSA site 5'A (dsDNA) DNA 1: GGAGCAGATGAACGCAAGCTGACCCTGAAGTTCATCTGCTTT DNA 2: AAAGCAGATGAACTTCAGGGTCAGCTTGCGTTCATCTGCTCC .
Data returned: 1.56e+06
